Overview of reported growth yield across a group of compounds:
tested on: Trichoderma virens ATCC 9645; assay: growth yield (OD600) with compound + IPBC relative to untreated control; higher = less growth inhibition; settings: compound concentration: 100 uM; IPBC concentration: 200 ng/ml; 40 h
Where a name gives a salt, the structure may show the parent alone. The campaign covered roughly 1,300 compounds. About 130 (10%) showed an effect of 50% or more. Many of the other results were omitted from the sample, so strong results are more common in it than they were.
Measurement label: growth yield (%)

CCCCCCNC(=O)n1cc(F)c(=O)[nH]c1=O [Carmofur] + CCCCNC(=O)OCC#CI [3-iodo-2-propynyl butylcarbamate (IPBC)] = 21.9
CC(C)(C(=O)O)c1ccc(C(O)CCCN2CCC(C(O)(c3ccccc3)c3ccccc3)CC2)cc1 (centres undefined) [Fexofenadine hydrochloride] + CCCCNC(=O)OCC#CI [3-iodo-2-propynyl butylcarbamate (IPBC)] = 89.3
Nc1nc(=O)c2nc(CNc3ccc(C(=O)N[C@@H](CCC(=O)O)C(=O)O)cc3)cnc2[nH]1 [Folic acid] + CCCCNC(=O)OCC#CI [3-iodo-2-propynyl butylcarbamate (IPBC)] = 84.8
C[C@@H]1[C@H](O)[C@@H](C)/C=C/C=C/C=C/C=C/C=C/C=C/C=C/[C@H](O[C@@H]2O[C@H](C)[C@@H](O)[C@H](N)[C@@H]2O)C[C@@H]2O[C@](O)(C[C@@H](O)C[C@@H](O)[C@H](O)CC[C@@H](O)C[C@@H](O)CC(=O)O[C@H]1C)C[C@H](O)[C@H]2C(=O)O [Amphotericin B] + CCCCNC(=O)OCC#CI [3-iodo-2-propynyl butylcarbamate (IPBC)] = 37.3
CC1OC(OC2/C=C/C=C/C=C/C=C/CC/C=C/C=C/[C@H](C)[C@@H](O)[C@@H](C)[C@H](C)OC(=O)CC(O)CC(O)CC(O)CCC(O)C(O)C[C@]3(O)CC(O)C(C(=O)O)C(C2)O3)C(O)C(N)C1O (some centres undefined) [Nystatine] + CCCCNC(=O)OCC#CI [3-iodo-2-propynyl butylcarbamate (IPBC)] = 50.5
Cc1ccnc(NS(=O)(=O)c2ccc(N)cc2)n1 [Sulfamerazine] + CCCCNC(=O)OCC#CI [3-iodo-2-propynyl butylcarbamate (IPBC)] = 88.2
CC(C)(C)c1ccc(C(O)CCCN2CCC(C(O)(c3ccccc3)c3ccccc3)CC2)cc1 (centres undefined) [Terfenadine] + CCCCNC(=O)OCC#CI [3-iodo-2-propynyl butylcarbamate (IPBC)] = 47.2
CC(C)[N+](C)(CCOC(=O)C1c2ccccc2Oc2ccccc21)C(C)C [Propantheline bromide] + CCCCNC(=O)OCC#CI [3-iodo-2-propynyl butylcarbamate (IPBC)] = 78.8
OC(c1ccccc1)(c1ccccc1)C1CCNCC1 [Azacyclonol] + CCCCNC(=O)OCC#CI [3-iodo-2-propynyl butylcarbamate (IPBC)] = 80.1

###

tested on: Trichoderma virens ATCC 9645; test: growth yield (OD600) with compound + IPBC relative to untreated control; higher = less growth inhibition; conditions: compound concentration: 100 uM; IPBC concentration: 200 ng/ml; 72 h
Where a name gives a salt, the structure may show the parent alone. About 130 (10%) of roughly 1,300 compounds showed an effect of 50% or more. For the sample, strong results were picked, then their nearest neighbours and some compounds at random.
Measurement label: growth yield (%)

CN(C)CC/C=C1\c2ccccc2CSc2ccccc21 [Dosulepin hydrochloride] + CCCCNC(=O)OCC#CI [3-iodo-2-propynyl butylcarbamate (IPBC)] = 99
CN(C)CCC=C1c2ccccc2C=Cc2ccccc21 [Cyclobenzaprine hydrochloride] + CCCCNC(=O)OCC#CI [3-iodo-2-propynyl butylcarbamate (IPBC)] = 88.4
CN(C)CCOC1=Cc2ccccc2Sc2ccc(Cl)cc21 [Zotepine] + CCCCNC(=O)OCC#CI [3-iodo-2-propynyl butylcarbamate (IPBC)] = 97.7

###

system: Trichoderma virens ATCC 9645; assay: growth yield (OD600) with compound + IPBC relative to untreated control; higher = less growth inhibition; conditions: compound concentration: 100 uM; IPBC concentration: 200 ng/ml; 72 h
Where a name gives a salt, the structure may show the parent alone. The whole screen tested about 1,300 compounds, of which about 130 (10%) showed an effect of 50% or more. The entries come from a sample that favours strong results as a whole.
Overview of reported growth yield across a group of molecules:
Measurement label: growth yield (%)

CCC(C)n1ncn(-c2ccc(N3CCN(c4ccc(OCC5COC(Cn6cncn6)(c6ccc(Cl)cc6Cl)O5)cc4)CC3)cc2)c1=O (stereo unspecified) [Itraconazole] + CCCCNC(=O)OCC#CI [3-iodo-2-propynyl butylcarbamate (IPBC)] = 11.3
C[C@]12CC[C@@H]3c4ccc(OS(=O)(=O)O)cc4CC[C@H]3[C@@H]1CCC2=O [Estropipate] + CCCCNC(=O)OCC#CI [3-iodo-2-propynyl butylcarbamate (IPBC)] = 89.7
CCCN1CCCC[C@H]1C(=O)Nc1c(C)cccc1C [Ropivacaine hydrochloride] + CCCCNC(=O)OCC#CI [3-iodo-2-propynyl butylcarbamate (IPBC)] = 92
CO/N=C1\CN(c2nc3c(cc2F)c(=O)c(C(=O)O)cn3C2CC2)CC1CN (stereo unspecified) [Gemifloxacin mesylate] + CCCCNC(=O)OCC#CI [3-iodo-2-propynyl butylcarbamate (IPBC)] = 104
c1ccc(-c2ccc(C(c3ccccc3)n3ccnc3)cc2)cc1 (stereo unspecified) [Bifonazole] + CCCCNC(=O)OCC#CI [3-iodo-2-propynyl butylcarbamate (IPBC)] = 3.25
O=c1[nH]cc(F)c(=O)[nH]1 [5-fluorouracil] + CCCCNC(=O)OCC#CI [3-iodo-2-propynyl butylcarbamate (IPBC)] = 58.1
CN1CCN2c3ccccc3Cc3ccccc3C2C1 (stereo unspecified) [Mianserine hydrochloride] + CCCCNC(=O)OCC#CI [3-iodo-2-propynyl butylcarbamate (IPBC)] = 94.1
Cc1cc(/C=C/c2ccc3cc(N(C)C)ccc3[n+]2C)c(C)n1-c1ccccc1 [Pyrvinium pamoate] + CCCCNC(=O)OCC#CI [3-iodo-2-propynyl butylcarbamate (IPBC)] = 111
COc1ccc(C(=O)c2ccccc2)c(O)c1 [Oxybenzone] + CCCCNC(=O)OCC#CI [3-iodo-2-propynyl butylcarbamate (IPBC)] = 71.1
COC(c1ccccc1)(c1ccccc1)[C@H](Oc1nc(C)cc(C)n1)C(=O)O [Ambrisentan] + CCCCNC(=O)OCC#CI [3-iodo-2-propynyl butylcarbamate (IPBC)] = 93.9
COc1ccccc1O [Guaiacol] + CCCCNC(=O)OCC#CI [3-iodo-2-propynyl butylcarbamate (IPBC)] = 98
CC(C)c1nc(CN(C)C(=O)N[C@H](C(=O)N[C@@H](Cc2ccccc2)C[C@H](O)[C@H](Cc2ccccc2)NC(=O)OCc2cncs2)C(C)C)cs1 [Ritonavir] + CCCCNC(=O)OCC#CI [3-iodo-2-propynyl butylcarbamate (IPBC)] = 119
COC(=O)Nc1nc2cc(C(=O)c3cccs3)ccc2[nH]1 [Nocodazole] + CCCCNC(=O)OCC#CI [3-iodo-2-propynyl butylcarbamate (IPBC)] = 109
CC[C@@H]([C@H](C)O)n1ncn(-c2ccc(N3CCN(c4ccc(OC[C@@H]5CO[C@@](Cn6cncn6)(c6ccc(F)cc6F)C5)cc4)CC3)cc2)c1=O [Posaconazole] + CCCCNC(=O)OCC#CI [3-iodo-2-propynyl butylcarbamate (IPBC)] = 3.78
Nc1nc(=O)[nH]cc1F [Flucytosine] + CCCCNC(=O)OCC#CI [3-iodo-2-propynyl butylcarbamate (IPBC)] = 90.4
COc1ccc(C(=O)c2ccccc2O)c(O)c1 [Dioxybenzone] + CCCCNC(=O)OCC#CI [3-iodo-2-propynyl butylcarbamate (IPBC)] = 48.3
CC(C)N1CCN(c2ccc(OCC3COC(Cn4cncn4)(c4ccc(Cl)cc4Cl)O3)cc2)CC1 (stereo unspecified) [Terconazole] + CCCCNC(=O)OCC#CI [3-iodo-2-propynyl butylcarbamate (IPBC)] = 87
OC(CNCC(O)C1CCc2cc(F)ccc2O1)C1CCc2cc(F)ccc2O1 (stereo unspecified) [Nebivolol hydrochloride] + CCCCNC(=O)OCC#CI [3-iodo-2-propynyl butylcarbamate (IPBC)] = 63.7
CN1CCC(=C2c3ccccc3Sc3ccccc32)CC1 [Pimethixene maleate] + CCCCNC(=O)OCC#CI [3-iodo-2-propynyl butylcarbamate (IPBC)] = 88
Nc1ccc(C(=O)O)c(O)c1 [4-aminosalicylic acid] + CCCCNC(=O)OCC#CI [3-iodo-2-propynyl butylcarbamate (IPBC)] = 94.2
N#Cc1ccc(C(c2ccc(C#N)cc2)n2cncn2)cc1 [Letrozole] + CCCCNC(=O)OCC#CI [3-iodo-2-propynyl butylcarbamate (IPBC)] = 98.5

###

Overview of reported growth yield across a group of compounds:
test system: Trichoderma virens ATCC 9645; experiment: growth yield (OD600) with compound + IPBC relative to untreated control; higher = less growth inhibition; details: compound concentration: 100 uM; IPBC concentration: 200 ng/ml; 72 h
Counter-ions that a name gives are not always drawn. The whole screen tested about 1,300 compounds, of which about 130 (10%) showed an effect of 50% or more. The sample as a whole holds a higher share of strong results than the screen did.
Measurement label: growth yield (%)

CCC(C)(C)c1ccc(CC(C)CN2C[C@@H](C)O[C@@H](C)C2)cc1 (stereo not given in full) [Amorolfine hydrochloride] + CCCCNC(=O)OCC#CI [3-iodo-2-propynyl butylcarbamate (IPBC)] = 2.94
N[C@@H]1CCCCN(c2c(F)cc3c(=O)c(C(=O)O)cn(C4CC4)c3c2Cl)C1 [Besifloxacin hydrochloride] + CCCCNC(=O)OCC#CI [3-iodo-2-propynyl butylcarbamate (IPBC)] = 88.1
CC(NC(C)(C)C)C(=O)c1cccc(Cl)c1 (stereo not given) [Bupropion hydrochloride] + CCCCNC(=O)OCC#CI [3-iodo-2-propynyl butylcarbamate (IPBC)] = 98.5
CC(C)(C)C(=O)OCOC(=O)[C@@H]1N2C(=O)[C@@H](NC(=O)[C@H](N)c3ccccc3)[C@H]2SC1(C)C [Pivampicillin] + CCCCNC(=O)OCC#CI [3-iodo-2-propynyl butylcarbamate (IPBC)] = 120
O=C(O)CNC(=O)C(CS)Cc1ccccc1 (stereo not given) [Thiorphan] + CCCCNC(=O)OCC#CI [3-iodo-2-propynyl butylcarbamate (IPBC)] = 90
